method-notes: amyloid nucleation score (Sup35N fusion, yeast selection) (log enrichment); library NNK3; higher = more nucleation; inactive = no reads after selection;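 further: zero at mode of non-aggregating sequences after 7 days selection at 30°C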
parameter: amyloid nucleation score

Recorded amyloid nucleation score, per entry:
INSERT INTO assay_data (substance, parameter, experimental_value) VALUES
  ('SAGWHTYRIKHPVSFVGKTI', 'amyloid nucleation score', 'inactive'),
  ('SRFNMFNLS', 'amyloid nucleation score', 0.163),
  ('LSSWFHFLSNTATRQKVWRS', 'amyloid nucleation score', 'inactive'),
  ('LVFSRACTLVDTIE', 'amyloid nucleation score', 'inactive');

Looking for the measured amyloid nucleation score of YWDVNQGVYGINYGTVSHS , can you help? 0.256

###

method-notes: amyloid nucleation score (Sup35N fusion, yeast selection) (log enrichment); library NNK2; higher = more nucleation; inactive = no reads after selection
Reported amyloid nucleation score by item:
Output: the number by itself.

INSERT INTO assay_data (substance, experimental_value) VALUES
  ('TIDKISCNIRLRPVYMLLNA', 0.342),
  ('DWVINS', -0.462),
  ('WSRSLKDGALESYSSVRLLC', 0.1),
  ('YFILKFVQTGGNS', 4.12),
  ('NDGCIGVFFDRMVPDWVTTL', -0.477),
  ('WSTSFYLLIFTPRVCCMDFF', 5.62),
  ('LVCGLDGLVCS', 0.111),
  ('NLMCTACILDQWRHCKLVWN', 4.15);

Looking for the measured amyloid nucleation score of SFGHHPDYRNVMVESYNRMV , can you help? 0.259

Looking for the measured amyloid nucleation score of RLILFAMTVLLASRGYNVRS , can you help? 0.402

Looking for the measured amyloid nucleation score of PTRKSIYSLPRARSLIPQNT , can you help? -1.26

Looking for the measured amyloid nucleation score of DSEHYVMWLKWYLLFLTYTH , can you help? -0.307

Looking for the measured amyloid nucleation score of AFRMLITGPGNS , can you help? -1.07

Looking for the measured amyloid nucleation score of FHWYGTVVIYVYLLADVYRC , can you help? -0.153

Looking for the measured amyloid nucleation score of WFPRSNAYLCMCFFVLREYQ , can you help? 0.428

Looking for the measured amyloid nucleation score of SLSWQNPCLMFMDNMADMIS , can you help? -0.006

Looking for the measured amyloid nucleation score of CLFRLSSCVPTWLMQLTMWG , can you help? 0.244

Looking for the measured amyloid nucleation score of DFFYTYGGIYGYWSFRHGIV , can you help? -1.24

Looking for the measured amyloid nucleation score of LLACLKGTSGAGRIYAYLMT , can you help? -0.096

Looking for the measured amyloid nucleation score of GDIRLLSRNVLGYIGALLDL , can you help? 0.179

Looking for the measured amyloid nucleation score of YCDVWGRRCCDANYMERTAS , can you help? 1.35

Looking for the measured amyloid nucleation score of GLYEYPHGKTIMVDWMAGRL , can you help? 1.17

Looking for the measured amyloid nucleation score of RRYKVDYTPSCIESPGVVLA , can you help? -1.19

Looking for the measured amyloid nucleation score of LYDVRGEMSNVGWFM , can you help? -0.052

Looking for the measured amyloid nucleation score of ISFTVYGPRMVVWLQGIMFG , can you help? -0.86

Looking for the measured amyloid nucleation score of CKSSGGWNVEMWSVK , can you help? -0.399

Looking for the measured amyloid nucleation score of LPCRFKKYALHNQSTTGFWI , can you help? -0.187

###

Reported amyloid nucleation score by item:
method-notes: amyloid nucleation score (Sup35N fusion, yeast selection) (log enrichment); library NNK1; higher = more nucleation; inactive = no reads after selection
Output: the number by itself.

Recorded amyloid nucleation score, per entry:
INSERT INTO measurements (substance, experimental_value) VALUES
  ('VICFWTLSRFYRGRD', -1.13),
  ('SAHSDPQMRKNSLTYGNDLI', -0.116),
  ('LLCYCVAELLDNTRRAT', 0.328),
  ('LYLSWSFSALSV', -0.593),
  ('PECTSVRATGIGDWWEDRGA', -1.46),
  ('VRGSVLCHRSLHETKNFL', 0.279);

Looking for the measured amyloid nucleation score of VPPCEWHRRTYR , can you help? 0.176

###

method-notes: amyloid nucleation score (Sup35N fusion, yeast selection) (log enrichment); library NNK2; higher = more nucleation; inactive = no reads after selection
Reported amyloid nucleation score by item:

INSERT INTO measurements (entry_sequence, experimental_value) VALUES
  ('TSVIGKSGPRYLFLEC', 0.299),
  ('LGLLFAINTVLSSQLR', 7.7),
  ('GVYKVGMVPWFIQFSDVGGR', 5.73),
  ('QGIRALRLYKFLTTSLILLI', -1.42),
  ('ILVSTIEGCLDYNLCFLAGL', 1.67);

Looking for the measured amyloid nucleation score of ASCNKGPEKSGQLFLLSAFL , can you help? -0.641

Looking for the measured amyloid nucleation score of LFGFLTTRVPWIFSWMVPTA , can you help? -0.003

###

method-notes: amyloid nucleation score (Sup35N fusion, yeast selection) (log enrichment); library NNK1; higher = more nucleation; inactive = no reads after selection
parameter: amyloid nucleation score
Output: the number by itself.

Recorded amyloid nucleation score, per entry:
INSERT INTO measurements (substance, parameter, experimental_value) VALUES
  ('VPTYGFGLEIFKDFSMNR', 'amyloid nucleation score', -0.926),
  ('HNSHRWYMGGTNVGVSCI', 'amyloid nucleation score', 0.456),
  ('AYINLTPHGPRVCRFNWLAS', 'amyloid nucleation score', -0.094),
  ('VNNIVRSICGIKGEVRFLCG', 'amyloid nucleation score', 0.094),
  ('MFGKLLICYRLYK', 'amyloid nucleation score', 0.084);

Kindly review the next substance as well.
Looking for the measured amyloid nucleation score of YVSLLYLLWLI , can you help? -0.326

###

method-notes: amyloid nucleation score (Sup35N fusion, yeast selection) (log enrichment); library NNK1; higher = more nucleation; inactive = no reads after selection
Decide using amyloid nucleation score: a value greater than or equal to -0.04 is 1, a smaller one is -1.

Reference set (6 entries):
INSERT INTO measurements (entry_sequence, assigned_category) VALUES
  ('AASVSCNLQQKAKRVAFFLM', 1),
  ('FGIWIRGFRTYDECHPAHGC', 1),
  ('MPCNVGMGWCRVVNWWGLYG', 1),
  ('YQVYWSVSG', 1),
  ('YPGRLRCSRVMSEFVLNSAL', -1),
  ('LEVMRWYWESLLACISLCD', 1);

Then this sequence:
Reported amyloid nucleation score reaches at least -0.04 for VNQFLRAMVPLKLRYRYFCL ? 1

###

method-notes: amyloid nucleation score (Sup35N fusion, yeast selection) (log enrichment); library NNK3; higher = more nucleation; inactive = no reads after selection
parameter: amyloid nucleation score

Recorded amyloid nucleation score, per entry:
INSERT INTO measurements (substance, experimental_value) VALUES
  ('VLLFLTFMYSLSFWSMLLRG', 'inactive'),
  ('HVNMSNIVLVLFSNSFNMHE', 1.75),
  ('YVVVLMSLHWRNWGALRRTC', 'inactive'),
  ('EPCSLPTSGPMGMVGNIKSG', 'inactive'),
  ('LLDKVLSEPKTSQDRSENVA', -0.696),
  ('FEECGVGPYVTKREATWFNG', 'inactive'),
  ('SSSLCASWHPYLKWKSYRMF', 'inactive'),
  ('APKVQGDCRNTGCAPMVHKK', 'inactive');

Looking for the measured amyloid nucleation score of WLSYIDGSKVELIVQAW , can you help? inactive

Looking for the measured amyloid nucleation score of IWWKNIGCAKYWVIPLRQWA , can you help? inactive

Looking for the measured amyloid nucleation score of LAGRHVVMWLQLMAHDIENM , can you help? inactive

Looking for the measured amyloid nucleation score of IIIFWLFLSGEIDECNNCAV , can you help? inactive

Looking for the measured amyloid nucleation score of LHHFSAIPH , can you help? inactive

Looking for the measured amyloid nucleation score of GNKQVVNWDGYF , can you help? -0.431

Looking for the measured amyloid nucleation score of STLGRKVRFTVVLITIGVLT , can you help? inactive

###

Reported amyloid nucleation score by item:
method-notes: amyloid nucleation score (Sup35N fusion, yeast selection) (log enrichment); library NNK1; higher = more nucleation; inactive = no reads after selection

Recorded amyloid nucleation score, per entry:
INSERT INTO assay_data (entry_sequence, experimental_value) VALUES
  ('VIPKGPSKTLNNFWYYAYHS', -0.327),
  ('YSGNSIFLNLRSSCAYCGGD', 6.35),
  ('YVKISVLGSKIYNIS', 5.38),
  ('FRVGYFAHSCRYVRSGRHMV', 0.401),
  ('MILLKCIYY', 0.179),
  ('CHGCIGTNSEGLCTLYEDYT', -0.594),
  ('VWFYRLIVSEVGFFRVKLKM', -1.58),
  ('MYKAEICLMSLENRPLMLPF', 0.203),
  ('NGHLRSINTSSARCMPAVFT', -0.112),
  ('VLSVGQESTMISESGFNTEN', -0.001);

Looking for the measured amyloid nucleation score of NVWSKWCERGNSDPIVPQAA , can you help? -0.458

Looking for the measured amyloid nucleation score of TLVVGMRLDNHDHA , can you help? 1.14
